pIC50 values, listed per item
Target: CRAF^SSDD (MEK1^SASA:CRAF^SSDD:14-3-3 dimer complex) (Homo sapiens, UniProt P04049, Y340D/Y341D)
Construct: His6 (N); StrepII (N); made in house; host or cells: insect cells (baculovirus)
Sequence (P04049 308-648 Y340D/Y341D): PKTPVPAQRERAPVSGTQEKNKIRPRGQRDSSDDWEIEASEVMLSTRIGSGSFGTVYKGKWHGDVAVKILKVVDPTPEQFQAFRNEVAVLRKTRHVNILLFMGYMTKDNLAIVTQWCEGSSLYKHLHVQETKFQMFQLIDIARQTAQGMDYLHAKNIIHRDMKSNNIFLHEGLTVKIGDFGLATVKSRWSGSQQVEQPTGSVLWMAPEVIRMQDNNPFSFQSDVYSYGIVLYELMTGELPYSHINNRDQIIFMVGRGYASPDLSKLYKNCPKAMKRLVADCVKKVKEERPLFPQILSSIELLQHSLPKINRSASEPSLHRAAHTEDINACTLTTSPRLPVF
Sequence (Q02750 whole entry S218A/S222A partner): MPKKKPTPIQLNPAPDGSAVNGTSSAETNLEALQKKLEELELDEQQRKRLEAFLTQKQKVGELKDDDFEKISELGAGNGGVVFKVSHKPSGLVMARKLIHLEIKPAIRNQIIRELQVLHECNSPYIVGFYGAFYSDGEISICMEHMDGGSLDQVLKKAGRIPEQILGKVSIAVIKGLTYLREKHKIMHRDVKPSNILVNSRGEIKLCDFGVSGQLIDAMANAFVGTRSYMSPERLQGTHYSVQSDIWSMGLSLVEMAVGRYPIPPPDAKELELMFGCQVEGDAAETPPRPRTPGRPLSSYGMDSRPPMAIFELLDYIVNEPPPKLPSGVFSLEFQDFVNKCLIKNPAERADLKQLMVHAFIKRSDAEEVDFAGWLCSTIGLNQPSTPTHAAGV
Experiment: TR-FRET kinase inhibition assay (phosphorylation of biotinylated MEK1), CRAF SSDD dimer complex
Assay type: biochemical
Details: read-out: CRAF^SSDD IC50
pIC50: −log10 of the molar value.

{"columns": ["SMILES_RECORD", "pIC50"],
 "data": [
  ["O=C(c1c(F)ccc(NS(=O)(=O)N2CC[C@@H](F)C2)c1F)c1c[nH]c2ncc(-c3cnc(C4CC4)nc3)cc12", 6.55],
  ["Cc1ccc2c(Nc3cccc(Cl)c3F)nccc2c1NC(=O)c1csc2c(N)ncnc12", 8.25],
  ["Cc1ccc(NC(=O)c2ccnc(C(F)(F)F)c2)cc1-c1cc(OCCO)nc(N2CCOCC2)c1", 8.22]
]}

# credit: paper PMC12630025
